Each record here notes measured pIC50.
# TARGET: cIAP1-BIR3 (Homo sapiens)
# Construct: cIAP1-BIR3
# Sequence (Q13490 253-363 limits assumed): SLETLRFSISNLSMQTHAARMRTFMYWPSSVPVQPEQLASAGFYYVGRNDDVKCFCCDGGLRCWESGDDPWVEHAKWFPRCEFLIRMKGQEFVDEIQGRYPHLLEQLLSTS
# ASSAY SUMMARY: cIAP1-BIR3 fluorescence polarization binding assay
# CONDITION SUMMARY: FP, probe AbuRPFK-5FAM (SM5F) 5 nM, cIAP1-BIR3 15 nM, 60 min at 25° C.
pIC50: −log10 of the molar value.

Completed entries (count: 3):
{"columns": ["MOLECULE", "OBSERVATION TYPE", "MEAS VALUE"],
 "data": [
  ["CN[C@@H](C)C(=O)N[C@H](C(=O)N1CCC[C@H]1C(=O)N[C@@H]1CCCc2c(Oc3cccc4c3CCC[C@H]4NC(=O)[C@@H]3CCCN3C(=O)[C@@H](NC(=O)[C@H](C)NC)C(C)C)cccc21)C(C)C [Compound X-B]", "pIC50", "8.00 to 9.00"],
  ["CN[C@@H](C)C(=O)N[C@H](C(=O)N1CCC[C@H]1C(=O)N[C@@H]1CCc2c(OCCOCCOc3cccc4c3CC[C@H]4NC(=O)[C@@H]3CCCN3C(=O)[C@@H](NC(=O)[C@H](C)NC)C3CCCCC3)cccc21)C1CCCCC1 [Compound II-F]", "pIC50", "8.00 to 9.00"],
  ["CN[C@@H](C)C(=O)N[C@H](C(=O)N1CCC[C@H]1C(=O)N[C@@H]1CCCc2c(Oc3cccc4c3CCC[C@H]4NC(=O)[C@@H]3CCCN3C(=O)[C@@H](NC(=O)[C@H](C)NC)C3CCCCC3)cccc21)C1CCCCC1 [Compound X]", "pIC50", "8.00 to 9.00"]
]}

Problem: What value of pIC50 has been recorded for this entry: CN[C@@H](C)C(=O)N[C@H](C(=O)N1CCC[C@H]1C(=O)N[C@@H]1CCCc2c(NC(=O)c3cccc4c3CCC[C@H]4NC(=O)[C@@H]3CCCN3C(=O)[C@@H](NC(=O)[C@H](C)NC)C(C)C)cccc21)C(C)C [VII-A]
Solution: 8.00 to 9.00

* * *

# TARGET: XIAP-BIR3 (Homo sapiens, UniProt P98170)
# Construct: XIAP-BIR3
# Sequence (P98170 241-356 limits assumed): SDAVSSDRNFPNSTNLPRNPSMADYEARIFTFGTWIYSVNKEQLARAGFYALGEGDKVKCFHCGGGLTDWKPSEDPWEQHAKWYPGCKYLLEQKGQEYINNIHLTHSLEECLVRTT
# ASSAY SUMMARY: XIAP-BIR3 fluorescence polarization binding assay
# CONDITION SUMMARY: FP, probe AbuRPFK-5FAM (SM5F) 5 nM, XIAP-BIR3 40 nM, 60 min at 25° C.
OBSERVATION TYPE: IC50

{"columns": ["STRUCTURE NOTATION", "IC50"],
 "data": [
  ["CN[C@@H](C)C(=O)N[C@H](C(=O)N1CCC[C@H]1C(=O)N[C@@H]1CCCc2c(NC(=O)c3cccc4c3CCC[C@H]4NC(=O)[C@@H]3CCCN3C(=O)[C@@H](NC(=O)[C@H](C)NC)C(C)C)cccc21)C(C)C", "10 to 100 nM"]
]}

We next turn to a different molecule, shown below.
Problem: Look up IC50: CN[C@@H](C)C(=O)N[C@H](C(=O)N1CCC[C@H]1C(=O)N[C@@H]1CCCc2cc(-c3ccc(-c4ccc5c(c4)CCC[C@H]5NC(=O)[C@@H]4CCCN4C(=O)[C@@H](NC(=O)[C@H](C)NC)C4CCCCC4)cc3)ccc21)C1CCCCC1
Solution: 100 to 1000 nM
